Where do the numbers come from? From patent US20240270821A1.

system tested: human GcgR (Homo sapiens)
Sequence (P47871 26-477): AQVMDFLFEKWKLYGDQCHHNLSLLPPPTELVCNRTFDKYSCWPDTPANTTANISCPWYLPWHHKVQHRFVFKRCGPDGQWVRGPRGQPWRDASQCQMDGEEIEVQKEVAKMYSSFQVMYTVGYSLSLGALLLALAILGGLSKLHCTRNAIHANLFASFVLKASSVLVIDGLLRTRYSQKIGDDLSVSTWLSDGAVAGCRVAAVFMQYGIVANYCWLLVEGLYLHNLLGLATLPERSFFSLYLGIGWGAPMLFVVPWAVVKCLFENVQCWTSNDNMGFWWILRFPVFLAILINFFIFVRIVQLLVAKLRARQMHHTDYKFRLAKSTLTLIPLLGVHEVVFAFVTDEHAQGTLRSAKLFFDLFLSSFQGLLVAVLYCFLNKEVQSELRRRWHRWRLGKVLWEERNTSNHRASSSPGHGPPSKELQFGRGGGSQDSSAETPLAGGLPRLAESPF
experimental protocol: Functional cAMP activity in the presence of 1% HSA
Assay type: cell-based
settings: read-out: cAMP Rel EC50, hGcgR
Starred links: 1 amine or outer side, 2 acyl side, 3 side chain; linkers in the order of their positions; H or OH if unused. Non-standard residues stand in square brackets, D forms with d. Groups on a side chain read outwards from the residue. No end group written: not given here. *: point of attachment. C18 diacid = O=C(O)CCCCCCCCCCCCCCCCC(=O)*; αMePhe(2-F) = C[C@](N)(Cc1ccccc1F)C(=O)O; γGlu = O=C(O)[C@H](CCC(=O)[*:2])N[*:1]; αMe4Pal = C[C@](N)(Cc1ccncc1)C(=O)O; αMeY = C[C@](N)(Cc1ccc(O)cc1)C(=O)O; 4Pal = N[C@@H](Cc1ccncc1)C(=O)O; αMeL = CC(C)C[C@](C)(N)C(=O)O; αMeS = C[C@](N)(CO)C(=O)O; Orn = NCCC[C@H](N)C(=O)O; AEEA = NCCOCCOCC(=O)O; Aib = CC(C)(N)C(=O)O
Binary label based on EC50 with cut-off 700 nM: below gives Fulfilled, not below gives Not fulfilled.

>>> answer_label("H-Y[Aib]QGT[αMePhe(2-F)]TSD[4Pal][αMeS]I[αMeL]LD[Orn]K([AEEA-γGlu-C18 diacid])AQ[αMe4Pal]EFI[dE][αMeY]LIEGGPPS[Aib][Orn]PPP[Orn]GS-NH2 [Example 1189]")
"Fulfilled"
>>> answer_label("Y[Aib]QGT[αMePhe(2-F)]TSD[4Pal][αMeS]I[αMeL]LD[Orn]K([γGlu-γGlu-C18 diacid])AQ[Aib]QFI[dE][αMeY]LQEGGPSSGEPPPEGTE-NH2 [Example 528]")
"Fulfilled"
>>> answer_label("Y[Aib]QGT[αMePhe(2-F)]TSD[4Pal]SI[αMeL]LD[Orn]K([AEEA-γGlu-C18 diacid])AQ[αMe4Pal]EFI[dE][αMeY]LIEGGPSSGAPPPSGE-NH2 [Example 614]")
"Not fulfilled"
>>> answer_label("H-Y[Aib]QGT[αMePhe(2-F)]TSD[4Pal][αMeS]I[αMeL]LD[Orn]K([γGlu-γGlu-C18 diacid])AQ[αMe4Pal]EFI[dE][αMeY]LIEGGPSSGAPPPSGTGE-NH2 [Example 718]")
"Fulfilled"
>>> answer_label("H-Y[Aib]QGTFTSD[4Pal]S[Orn][αMeL]LDKK([AEEA-γGlu-C18 diacid])AQ[Aib]AFIEYLLE[dA]GPSS[Aib]APPPSGT-NH2 [Example 275]")
"Not fulfilled"

* * *

system tested: hGIPR (Homo sapiens, UniProt P48546)
Sequence (P48546 22-466): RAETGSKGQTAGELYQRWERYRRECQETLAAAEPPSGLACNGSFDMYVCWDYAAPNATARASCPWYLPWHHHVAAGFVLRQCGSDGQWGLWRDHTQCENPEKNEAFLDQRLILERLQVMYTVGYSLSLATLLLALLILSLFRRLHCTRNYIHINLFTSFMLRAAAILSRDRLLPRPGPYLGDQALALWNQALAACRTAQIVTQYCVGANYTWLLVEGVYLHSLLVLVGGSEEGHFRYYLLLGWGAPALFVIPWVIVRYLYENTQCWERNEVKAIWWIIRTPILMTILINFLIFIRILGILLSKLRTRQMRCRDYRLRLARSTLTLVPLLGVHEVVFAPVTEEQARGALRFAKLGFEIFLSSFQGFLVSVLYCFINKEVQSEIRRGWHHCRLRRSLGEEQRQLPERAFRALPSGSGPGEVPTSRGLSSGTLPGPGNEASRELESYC
experimental protocol: Functional cAMP activation in the presence of 0.1% casein (no HSA);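 note: intracellular cAMP rise after 30 min at 37 °C read by HTRF against a standard curve, scaled between buffer alone (0%) and top control ligand concentration (100%), four-parameter fit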
Assay type: cell-based
settings: in the presence of 0.1% casein (no HSA); geometric mean; read-out: Relative cAMP EC50, hGIPR
Starred links: 1 amine or outer side, 2 acyl side, 3 side chain; linkers in the order of their positions; H or OH if unused. Non-standard residues stand in square brackets, D forms with d. Groups on a side chain read outwards from the residue. No end group written: not given here. *: point of attachment. C20 diacid = O=C(O)CCCCCCCCCCCCCCCCCCC(=O)*; C18 diacid = O=C(O)CCCCCCCCCCCCCCCCC(=O)*; αMePhe(2-F) = C[C@](N)(Cc1ccccc1F)C(=O)O; γGlu = O=C(O)[C@H](CCC(=O)[*:2])N[*:1]; εLys = N[C@@H](CCCCN[*:1])C(=O)[*:2]; αMe4Pal = C[C@](N)(Cc1ccncc1)C(=O)O; αMeY = C[C@](N)(Cc1ccc(O)cc1)C(=O)O; 4Pal = N[C@@H](Cc1ccncc1)C(=O)O; αMeL = CC(C)C[C@](C)(N)C(=O)O; αMeS = C[C@](N)(CO)C(=O)O; Orn = NCCC[C@H](N)C(=O)O; AEEA = NCCOCCOCC(=O)O; Aib = CC(C)(N)C(=O)O
readout type: log10 of EC50 (log10 of the value in nM)

>>> observed_result("H-Y[Aib]QGTFTSDYSI[αMeL]LDKQAAK([εLys-εLys-γGlu-C20 diacid])QFVEWLLA[Aib]GPSSGEPPPSEG-NH2 [Example 329]")
-0.68
>>> observed_result("H-Y[Aib]QGT[αMePhe(2-F)]TSD[4Pal][αMeS]I[αMeL]LD[Orn]K([γGlu-γGlu-C18 diacid])AQ[αMe4Pal]EFI[dE][αMeY]LIEGGPSSGEPPPSGE-NH2 [Example 1151]")
-2.47
>>> observed_result("H-Y[Aib]QGTFTSD[4Pal]SQ[αMeL]LDKK([γGlu-γGlu-C18 diacid])AQ[αMe4Pal]AFIEYLIAGGPSSGAPPPEGS-NH2 [Example 969]")
-0.85
>>> observed_result("H-Y[Aib]QGTFTSDFSK[αMeL]LDKK([AEEA-γGlu-C18 diacid])AQ[Aib]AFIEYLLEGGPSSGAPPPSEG[AEEA]-NH2 [Example 56]")
-0.50
>>> observed_result("H-Y[Aib]QGTFTSDFS[Orn][αMeL]LD[Orn]K([γGlu-γGlu-C18 diacid])AQ[Aib]AFIEYLLEGGPSSGAPPPGGSEE-NH2 [Example 1048]")
-0.45
>>> observed_result("H-Y[Aib]QGTFTSDFS[Orn][αMeL]LDKK([AEEA-AEEA-γGlu-C18 diacid])AQ[Aib]AFIEYLLE[dA]GPSSGHPPPSG[4Pal]-NH2 [Example 256]")
-0.75
>>> observed_result("H-Y[Aib]QGTFTSD[4Pal]S[Orn][αMeL]LD[Orn]K([γGlu-γGlu-C18 diacid])AQ[αMe4Pal][Orn]FIE[αMeY]LLAGGPSSGAPPPSGSEE-NH2 [Example 997]")
-0.43
>>> observed_result("Y[Aib]QGTFTSD[4Pal]SK[αMeL]LDKK([AEEA-γGlu-C18 diacid])AQ[Aib]AFIEYLIE[Aib]GESSGEPPPSGE-NH2 [Example 281]")
-0.81
>>> observed_result("H-Y[Aib]QGTFTSDFS[Orn][αMeL]LDKK([AEEA-γGlu-C18 diacid])AQ[Aib]AFIEYLLE[dA]GPSS[Aib]APPPSGT-NH2 [Example 214]")
-0.99
>>> observed_result("H-Y[Aib]QGTFTSDFS[Orn][αMeL]LDKK([AEEA-γGlu-γGlu-C18 diacid])AQ[Aib]AFIEYLLE[Aib]GPSSGAPPPSG[4Pal]-NH2 [Example 279]")
-0.98
>>> observed_result("H-Y[Aib]QGTFTSD[4Pal]SQ[αMeL]LDKK([γGlu-γGlu-C18 diacid])AQ[αMe4Pal]AFIEYLIE[Aib]GPSSGAPPPSGTE-NH2 [Example 1126]")
-0.76
